Target: endothelial lipase (EL) (Homo sapiens)
Construct: made in house; host or cells: recombinant CHO or HEK293 cell lines; concentrated conditioned medium used as enzyme solution
Sequence (Q9Y5X9 21-500): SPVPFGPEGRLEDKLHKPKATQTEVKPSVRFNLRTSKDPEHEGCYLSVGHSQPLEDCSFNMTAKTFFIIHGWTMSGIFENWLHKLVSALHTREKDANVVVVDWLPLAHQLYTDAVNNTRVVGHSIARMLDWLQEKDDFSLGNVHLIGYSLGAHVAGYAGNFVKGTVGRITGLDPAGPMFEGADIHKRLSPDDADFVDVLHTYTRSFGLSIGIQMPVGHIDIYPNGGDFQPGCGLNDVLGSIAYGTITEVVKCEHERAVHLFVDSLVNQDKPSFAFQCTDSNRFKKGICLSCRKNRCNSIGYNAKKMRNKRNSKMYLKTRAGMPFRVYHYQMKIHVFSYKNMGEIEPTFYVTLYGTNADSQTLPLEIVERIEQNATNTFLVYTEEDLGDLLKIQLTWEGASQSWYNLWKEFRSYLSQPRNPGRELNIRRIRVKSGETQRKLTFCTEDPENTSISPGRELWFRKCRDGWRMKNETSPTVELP
Assay: EL inhibition assay (endothelial lipase activity, fluorescent Bodipy phospholipid substrate)
Format: biochemical
Details: 37° C., 90 minutes; enzyme from conditioned medium of recombinant cell lines (CHO, HEK293)
recorded-endpoint: IC50 (µM)
Give a bare numeral; the unit µM is implied.

Item Cc1c(C)n(C(=O)NC2CCc3ccccc32)oc1=O (stereo not drawn) : provide IC50
0.1

Item Cc1ccc(CNC(=O)n2oc(=O)c3c2CCCC3)cc1C : provide IC50
0.009

Item Cc1ccc(CNC(=O)n2oc(=O)c(C(C)C)c2C)cc1C : provide IC50
0.004

Item Cc1ccccc1CNC(=O)n1oc(=O)c(C(C)C)c1C : provide IC50
0.028

More entries:
Item Cc1c(C(C)C)c(=O)on1C(=O)NC1CCc2ccccc21 (stereo not drawn) : provide IC50
0.06

Item Cc1ccc(CNC(=O)n2oc(=O)c(C(C)C)c2C)cc1 : provide IC50
0.9

Item O=C(N[C@H]1CCc2ccccc21)n1oc(=O)cc1C1CC1 : provide IC50
0.5

Item Cc1cccc(C)c1CNC(=O)n1oc(=O)c2c1CCCC2 : provide IC50
0.001

Item Cc1c(C(C)C)c(=O)on1C(=O)NCc1cc2ccccc2s1 : provide IC50
3.2

Item Cc1ccc(CNC(=O)n2oc(=O)c3c2CCCC3)cc1 : provide IC50
0.035

Item Cc1cccc(CNC(=O)n2oc(=O)c3c2CCCC3)c1 : provide IC50
0.053

Item Cc1c(C(C)C)c(=O)on1C(=O)NCc1cccs1 : provide IC50
14.1
